# assayed-system: β-amyloid (Aβ1-42) (Homo sapiens, UniProt P05067)
# Construct: β-amyloid (Aβ1-42, AnaSpec Inc, USA) was obtained; purchased AnaSpec Inc, USA
# Sequence (P05067 672-713 limits assumed): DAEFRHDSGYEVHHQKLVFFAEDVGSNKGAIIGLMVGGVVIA
# protocol-text: Beta-amyloid aggregation inhibition, fluorescence analysis (Thioflavin T assay)
# Assay type: biochemical
# experimental-parameters: compound 10 μM; positive control taken as 100%
Task for the reader: assign each of the following compounds its reported decreased aggregation compared with the positive control.
Answers are plain numbers, in %.

Examples with their reported decreased aggregation compared with the positive control follow.
compound: CC1OC(OCC2OC(Oc3c(-c4ccc(O)c(O)c4)oc4cc(O)cc(O)c4c3=O)C(O)C(OC(=O)/C=C/c3ccc(O)cc3)C2O)C(O)C(OC2OC(CO)C(O)C(O)C2O)C1O (stereo not shown)
reported-measurement: 11.2
--
compound: CC1OC(OCC2OC(Oc3c(-c4ccc(O)c(O)c4)oc4cc(O)cc(O)c4c3=O)C(O)C(OC(=O)/C=C/c3ccc(O)cc3)C2O)C(O)C(O)C1O (stereo not shown)
reported-measurement: 16.8
--
compound: O=c1c(O)c(-c2ccc(O)cc2O)oc2cc(O)cc(O)c12 [Morin, morin, reference compound]
reported-measurement: 21.4

Kindly consider the entry below.
*Q* Identify measured decreased aggregation compared with the positive control corresponding to O=S1(=O)OC(c2ccc(O)cc2)(c2ccc(O)cc2)c2ccccc21 [Phenol Red, phenol red, reference compound]
*A* 6.4

---

# assayed-system: β-amyloid (Aβ1-42) (Homo sapiens, UniProt P05067)
# Construct: β-amyloid (Aβ1-42, AnaSpec Inc, USA) was obtained; purchased AnaSpec Inc, USA
# protocol-text: Beta-amyloid aggregation inhibition, fluorescence analysis (Thioflavin T assay)
# Type: biochemical
# experimental-parameters: compound 10 μM; aggregated β-amyloid compared to the positive control (no compound) = 100
measurement-type: Increased RFU (% of Pos.Cont.) (%)
Give bare numbers, in %.

# batch: return Increased RFU (% of Pos.Cont.) for each of the 3 molecules below
1. O=S1(=O)OC(c2ccc(O)cc2)(c2ccc(O)cc2)c2ccccc21 [Phenol Red, phenol red, reference compound]
2. O=c1c(O)c(-c2ccc(O)cc2O)oc2cc(O)cc(O)c12 [Morin, morin, reference compound]
3. CC1OC(OCC2OC(Oc3c(-c4ccc(O)c(O)c4)oc4cc(O)cc(O)c4c3=O)C(O)C(OC(=O)/C=C/c3ccc(O)cc3)C2O)C(O)C(O)C1O (stereo not shown)

*A*
[93.6, 78.6, 83.2]

*Q* Report Increased RFU (% of Pos.Cont.) from β-amyloid (Aβ1-42) (Homo sapiens, UniProt P05067) testing of CC1OC(OCC2OC(Oc3c(-c4ccc(O)c(O)c4)oc4cc(O)cc(O)c4c3=O)C(O)C(OC(=O)/C=C/c3ccc(O)cc3)C2O)C(O)C(OC2OC(CO)C(O)C(O)C2O)C1O (stereo not shown)
*A* 88.8

Data origin, for the record: patent US10550142B2
